study_system: T1, formyl peptide receptor 2 (FPR2) (UniProt P25090 1-351, limits assumed)
T1 sequence (looked up): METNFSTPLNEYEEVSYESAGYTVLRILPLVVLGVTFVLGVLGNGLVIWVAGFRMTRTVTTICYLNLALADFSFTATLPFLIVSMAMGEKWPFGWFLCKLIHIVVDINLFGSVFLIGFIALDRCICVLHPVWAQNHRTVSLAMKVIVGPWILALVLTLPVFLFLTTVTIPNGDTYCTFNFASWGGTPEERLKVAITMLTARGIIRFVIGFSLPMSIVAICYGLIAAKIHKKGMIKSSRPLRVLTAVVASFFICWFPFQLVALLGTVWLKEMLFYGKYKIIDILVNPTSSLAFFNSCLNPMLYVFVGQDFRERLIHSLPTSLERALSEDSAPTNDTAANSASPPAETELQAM
test_details: cell-based or functional assay
measured_quantity: EC50 for [Ca2+]

MRYYPM (HELM PEPTIDE1{M.R.Y.Y.P.[dM].[am]}$$$$V2.0; N-terminus assumed; SMILES CSCC[C@H](N)C(=O)N[C@@H](CCCNC(=N)N)C(=O)N[C@@H](Cc1ccc(O)cc1)C(=O)N[C@@H](Cc1ccc(O)cc1)C(=O)N1CCC[C@H]1C(=O)N[C@H](CCSC)C(N)=O) [peptide of SEQ ID NO 120] : < 10 nM
RMRYKPM (HELM PEPTIDE1{[CCCC(=O)[*:2]].R.M.R.Y.K.P.[dM].[am]}$$$$V2.0; SMILES CCCC(=O)N[C@@H](CCCNC(=N)N)C(=O)N[C@@H](CCSC)C(=O)N[C@@H](CCCNC(=N)N)C(=O)N[C@@H](Cc1ccc(O)cc1)C(=O)N[C@@H](CCCCN)C(=O)N1CCC[C@H]1C(=O)N[C@H](CCSC)C(N)=O) [peptide of SEQ ID NO 52] : < 10 nM

Where do the numbers come from? From patent US20250361268A1.
